# system-under-test: Short transient receptor potential channel 4 (Mus musculus)
# experiment-notes: potentiation of DAMGO-evoked TRPC4 calcium signal – cell-based, HEK293 TRPC4/mu-opioid, Fluo-4 calcium, EC20 DAMGO, dose response (AID 434941);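 also: calcium entry triggered by an EC20 dose of DAMGO at the co-expressed mu-opioid receptor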
# condition-info: HEK293 TRPC4/mu-opioid cells, Fluo-4 calcium fluorescence; series mostly up to 20 µM
Measured potencies and affinities stand elsewhere. Calls of active or inactive are those of the source.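 The calls were made as follows: active = earlier screen potentiator hit that boosts the TRPC4 ion channel at some dose, with a dose response; inactive = no potentiation, no dose response, or not a prior hit.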
recorded-metric: outcome

Solved entries (count: 4):
O=C(C1CCN(CC2CC=CCC2)CC1)N(CCc1ccccc1)Cc1ccccc1 (stereo not given)
inactive
CCOc1cccc(CN2CCCC(C(=O)c3cccc(C(F)(F)F)c3)C2)c1O (stereo not given)
inactive
O=C1CCCC(=O)N1c1ccc(N2CCN(c3ccc([N+](=O)[O-])cc3)CC2)c([N+](=O)[O-])c1
inactive
CCCCCCCNC(=O)COc1ccc2c(c1)C(=O)CC(C)(C)O2
inactive

Now, please, on to the next molecule.
Given item COc1cc2nc(=S)n3[nH]c(CCn4nc(C)cc4C)nc3c2cc1OC , the value recorded as its outcome is inactive

====

# System: TRPC4 (mouse), co-expressed with 5HT1a in HEK293
# experiment-notes: enhancement of serotonin-evoked TRPC4 response – cell-based, second counter screen, HEK293 TRPC4/5HT1a, Fluo-4, counter-screen for TRPC4 potentiator project, confirmation (AID 434979)
# condition-info: Fluo-4 calcium flux, at 10 µM, serotonin added at its EC20 dose
Calls of active or inactive are those of the source.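 How the source made its calls: active means signal rise over 3 SD above mean of control wells given weak agonist, in both repeats and first screen; inactive means the rest.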
Answer with one of the outcomes active, inactive

Example cases with answers are listed next.
CC(CN1CCCC(C(N)=O)C1)c1ccccc1 (stereo not drawn)
inactive
O=C(OCC(=O)N1CCOCC1)c1cccc(S(=O)(=O)N2CCCc3ccccc32)c1
active
CCN(CC)CCN(C(=O)c1ccccc1OC)c1nc2ccc(F)cc2s1
inactive

input: Field: outcome | Entry: CN1/C(=C\C(=O)C[n+]2ccc3ccccc3c2)C(C)(C)c2ccccc21
output: inactive

input: Field: outcome | Entry: Cc1ccc(Cn2c(=N)n(CC(O)c3ccco3)c3ccccc32)cc1 (stereo not drawn)
output: inactive

input: Field: outcome | Entry: Cc1ccc(-n2c(C)cc(C)c(C#N)c2=O)cc1Cl
output: inactive

input: Field: outcome | Entry: COc1ccc(C2CC2/C(=N/O)c2ccccc2)cc1 (stereo not drawn)
output: inactive

====

# Tested on: transient receptor potential cation channel C4 beta (TRPC4), mouse
# experiment-notes: TRPC4 cation channel opening, second retest – cell-based, second round, Fluo4, HEK293 TRPC4beta/mu-opioid, 1 µM, confirmation (AID 2461)
# condition-info: Fluo4 calcium fluorescence, at 1 µM; stronger effect = higher value
Active and inactive are the calls of the source.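 The calls were made as follows: active = primary screen active and over 50% activation in each of two duplicate runs; inactive = the rest.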
recorded-metric: activation

N=c1c(C(=O)NCC2CCCO2)cc2c(=O)n3ccccc3nc2n1Cc1ccc(Cl)cc1 (stereo not given)
inactive
CC(=O)N(c1ccc(Cl)cc1)c1c[nH]c2ccccc12
inactive
COC(=O)c1cccc(Nc2c3c(nc4ccccc24)CCC3)c1
inactive
CCC1CCCCN1CCN1C(=O)C2C(C(=O)Nc3ccc(OC)cc3)C3C=CC2(O3)C1C(=O)NC1CCCCC1 (stereo not given)
inactive
COc1cc(C(F)(F)F)nc2c(Br)c(C(C)(C)C)nn12
inactive

Given item COc1ccc(-n2nc(C(=O)NCC(=O)NCCCN3CC(C)CC(C)C3)c3ccccc3c2=O)cc1Cl (stereo not given) , the value recorded as its activation is inactive

Given item CCC(=O)N1CCc2cc(S(=O)(=O)NCCN3CCCCC3CC)ccc21 (stereo not given) , the value recorded as its activation is inactive

Given item CCCC(=O)Nc1c(-c2ccccc2)c(=O)c(C)nn1-c1ccc(Cl)cc1 , the value recorded as its activation is inactive

Given item CC(C)c1nc2ccc(Br)cn2c1NC1CCCC1 , the value recorded as its activation is inactive

Given item O=c1c2ccccc2[nH]c(=S)n1CCN1CCN(Cc2ccccc2)CC1 , the value recorded as its activation is inactive
